measurementProtocol: Cytotoxicity against human H1HeLa cells assessed as decrease in cell viability after 3 days by MTT assay
Assay type: cell-based, H1-HeLa
Answer each item with its documented CC50 at 72 h.
Report the value in µM with no unit label.

Entry under test: CCOC(=O)c1cc2ccc(Oc3ccncc3)cc2s1 . Its CC50 at 72 h was 42.4

Per the records, this compound ( CCOC(=O)c1cc2ccc(O)cc2s1 ) has CC50 at 72 h equal to 52.3

The compound identified as CCOC(=O)c1sc2cc(Oc3cccc(C(=O)NC)c3)ccc2c1C registered its CC50 at 72 h at 5.1

Looking up CCOC(=O)c1sc2cc(Oc3ccnc(C(=O)NC)c3)ccc2c1Cl , I see its CC50 at 72 h listed as 46.9

Given item CCOC(=O)c1ccc2cc(Oc3ccnc(C(=O)NC)c3)ccc2c1 , the value recorded as its CC50 at 72 h is 35.3

Short answer for CNC(=O)c1cc(Oc2ccc3ccc(C(=O)OC)cc3c2)ccn1 : CC50 at 72 h was 53.5

Lab note: measured CC50 at 72 h of CCOC(=O)c1cc2ccc(OC)cc2s1 was 70.9

// CC50 at 72 h value for CCOC(=O)c1sc2cc(Oc3ccnc(C(=O)NC)c3)ccc2c1N : 0.11

The recorded CC50 at 72 h for entry CCC(C)OC(=O)c1ccc2ccc(Oc3ccnc(C(=O)NC)c3)cc2c1 (centres undefined) equals 16

// field: CC50 at 72 h; key: CNC(=O)c1cc(Oc2ccc3c(C)c(C(=O)OCC(C)C)sc3c2)ccn1 ; value = 36.6

The compound identified as CNC(=O)c1cc(Oc2ccc3ccc(C(=O)OC(C)C)cc3c2)ccn1 registered its CC50 at 72 h at 13.8

Form: compound = Cc1cc(CCCOc2c(C)cc(-c3noc(C(F)(F)F)n3)cc2C)on1 [PLECONARIL] ; CC50 at 72 h = 19.7

// recorded CC50 at 72 h for CCOC(=O)c1ccc2ccc(Oc3ccnc(C(=O)NC)c3)cc2c1 : 20.8

Record CCOC(=O)c1sc2cc(Oc3ccnc(C(=O)OC)c3)ccc2c1C , field CC50 at 72 h: 24.9

The compound identified as CNC(=O)c1ccc(Oc2ccc3c(C)c(C(=O)OC(C)C)sc3c2)cn1 registered its CC50 at 72 h at 7.6

Consider CCOC(=O)c1sc2cc(O)ccc2c1C . Its measured CC50 at 72 h is 82

For record CNC(=O)c1cc(Oc2ccc3cc(C(=O)OC(C)C)n(C)c3c2)ccn1 the listed CC50 at 72 h is 10.3

Sample CNC(=O)c1cc(Oc2ccc3c(C)c(C(=O)OC)sc3c2)ccn1 ; CC50 at 72 h observed: 10.8

FYI, the data here is from ChEMBL document CHEMBL4011621.
